System: Escherichia coli
assay.comment: Antibacterial activity against Escherichia coli ATCC25922 incubated for 16 to 20 hrs by broth microdilution method
Assay type: functional
condition.summary: time 16-20 hrs
Give MIC for every item shown.
Numbers only, in µg/mL.

smiles.data: CC[C@H]1OC(=O)C[C@@H](O)[C@H](C)[C@@H](O[C@@H]2O[C@H](C)[C@@H](O)[C@H](N(C)C)[C@H]2O)[C@@H](CCN(C)Cc2cn(-c3cnc4ccccc4c3)nn2)C[C@@H](C)C(=O)/C=C/C(C)=C/[C@@H]1CNCc1cccc(C)c1
MIC, µg/mL: 0.5

smiles.data: CC[C@H]1OC(=O)C[C@@H](O)[C@H](C)[C@@H](O[C@@H]2O[C@H](C)[C@@H](O)[C@H](N(C)C)[C@H]2O)[C@@H](CCNCc2cn(-c3cnc4ccccc4c3)nn2)C[C@@H](C)C(=O)/C=C/C(C)=C/[C@@H]1CN(C)C
MIC, µg/mL: 2

smiles.data: CC[C@H]1OC(=O)C[C@@H](O)[C@H](C)[C@@H](O[C@@H]2O[C@H](C)[C@@H](O)[C@H](N(C)C)[C@H]2O)[C@@H](CCNCc2cn(-c3cnc4ccccc4c3)nn2)C[C@@H](C)C(=O)/C=C/C(C)=C/[C@@H]1CNCc1ccc(Cl)cc1
MIC, µg/mL: 2

smiles.data: CC[C@H]1OC(=O)C[C@@H](O)[C@H](C)[C@@H](O[C@@H]2O[C@H](C)[C@@H](O)[C@H](N(C)C)[C@H]2O)[C@@H](CCN(C)Cc2cn(-c3cnc4ccccc4c3)nn2)C[C@@H](C)C(=O)/C=C/C(C)=C/[C@@H]1CN(Cc1ccccc1)C(C)C
MIC, µg/mL: 16

Quick one: give me MIC for each item below, same order please.
1. CCCCN(CCCC)C[C@H]1/C=C(C)/C=C/C(=O)[C@H](C)C[C@H](CCNCc2cn(-c3cnc4ccccc4c3)nn2)[C@H](O[C@@H]2O[C@H](C)[C@@H](O)[C@H](N(C)C)[C@H]2O)[C@@H](C)[C@H](O)CC(=O)O[C@@H]1CC
2. CC[C@H]1OC(=O)C[C@@H](O)[C@H](C)[C@@H](O[C@@H]2O[C@H](C)[C@@H](O)[C@H](N(C)C)[C@H]2O)[C@@H](CCN(Cc2cn(-c3cnc4ccccc4c3)nn2)c2ccccc2)C[C@@H](C)C(=O)/C=C/C(C)=C/[C@@H]1CI
3. CC[C@H]1OC(=O)C[C@@H](O)[C@H](C)[C@@H](O[C@@H]2O[C@H](C)[C@@H](O)[C@H](N(C)C)[C@H]2O)[C@@H](CCNCc2cn(-c3cnc4ccccc4c3)nn2)C[C@@H](C)C(=O)/C=C/C(C)=C/[C@@H]1CNc1ccc(C)cc1
4. CC[C@H]1OC(=O)C[C@@H](O)[C@H](C)[C@@H](O[C@@H]2O[C@H](C)[C@@H](O)[C@H](N(C)C)[C@H]2O)[C@@H](CCNCc2cn(-c3cnc4ccccc4c3)nn2)C[C@@H](C)C(=O)/C=C/C(C)=C/[C@@H]1CNCc1ccccc1

Marked response:
[8, 32, 2, 1]

###

System: Escherichia coli
assay.comment: Antibacterial activity against Escherichia coli ATCC25922 incubated for 16 to 20 hrs by broth microdilution method
Format: functional
condition.summary: time 16-20 hrs
assay.metric: MIC (µg/mL)
One number for each entry, in µg/mL.

smiles.data: CC[C@H]1OC(=O)C[C@@H](O)[C@H](C)[C@@H](O[C@@H]2O[C@H](C)[C@@H](O)[C@H](N(C)C)[C@H]2O)[C@@H](CCN(C)Cc2cn(-c3cnc4ccccc4c3)nn2)C[C@@H](C)C(=O)/C=C/C(C)=C/[C@@H]1CN(CC)Cc1ccccc1
MIC / µg/mL: 8

State the recorded MIC for every item in the following list.
1. CC[C@H]1OC(=O)C[C@@H](O)[C@H](C)[C@@H](O[C@@H]2O[C@H](C)[C@@H](O)[C@H](N(C)C)[C@H]2O)[C@@H](CCNCc2cn(-c3cnc4ccccc4c3)nn2)C[C@@H](C)C(=O)/C=C/C(C)=C/[C@@H]1CN1CCCCC1
2. CC[C@H]1OC(=O)C[C@@H](O)[C@H](C)[C@@H](O[C@@H]2O[C@H](C)[C@@H](O)[C@H](N(C)C)[C@H]2O)[C@@H](CCN(C)Cc2cn(-c3cnc4ccccc4c3)nn2)C[C@@H](C)C(=O)/C=C/C(C)=C/[C@@H]1CNCc1ccccc1
3. CC[C@H]1OC(=O)C[C@@H](O)[C@H](C)[C@@H](O[C@@H]2O[C@H](C)[C@@H](O)[C@H](N(C)C)[C@H]2O)[C@@H](CCN(C)Cc2cn(-c3cnc4ccccc4c3)nn2)C[C@@H](C)C(=O)/C=C/C(C)=C/[C@@H]1CI

Marked response:
[2, 2, 16]

###

Tested on: Escherichia coli
assay.comment: Antibacterial activity against Escherichia coli ATCC25922 incubated for 16 to 20 hrs by broth microdilution method
Assay type: functional
condition.summary: time 16-20 hrs
assay.metric: MIC (µg/mL)
Answers are plain numbers, in µg/mL.

# count of solved cases: 7
compound: CC[C@H]1OC(=O)C[C@@H](O)[C@H](C)[C@@H](O[C@@H]2O[C@H](C)[C@@H](O)[C@H](N(C)C)[C@H]2O)[C@@H](CCN(Cc2cn(-c3cnc4ccccc4c3)nn2)c2ccccc2)C[C@@H](C)C(=O)/C=C/C(C)=C/[C@@H]1CN(C)C1CCCCC1
MIC / µg/mL: 4
--
compound: CC[C@H]1OC(=O)C[C@@H](O)[C@H](C)[C@@H](O[C@@H]2O[C@H](C)[C@@H](O)[C@H](N(C)C)[C@H]2O)[C@@H](CCN2CCCCC2)C[C@@H](C)C(=O)/C=C/C(C)=C/[C@@H]1CN1CCCCC1 [TILDIPIROSIN]
MIC / µg/mL: 1
--
compound: CC[C@H]1OC(=O)C[C@@H](O)[C@H](C)[C@@H](O[C@@H]2O[C@H](C)[C@@H](O)[C@H](N(C)C)[C@H]2O)[C@@H](CCN(Cc2cn(-c3cnc4ccccc4c3)nn2)c2ccccc2)C[C@@H](C)C(=O)/C=C/C(C)=C/[C@@H]1CNCc1ccccc1
MIC / µg/mL: 8
--
compound: CC[C@H]1OC(=O)C[C@@H](O)[C@H](C)[C@@H](O[C@@H]2O[C@H](C)[C@@H](O)[C@H](N(C)C)[C@H]2O)[C@@H](CCN(C)Cc2cn(-c3cnc4ccccc4c3)nn2)C[C@@H](C)C(=O)/C=C/C(C)=C/[C@@H]1CNCc1ccc(Br)cc1
MIC / µg/mL: 8
--
compound: CC[C@H]1OC(=O)C[C@@H](O)[C@H](C)[C@@H](O[C@@H]2O[C@H](C)[C@@H](O)[C@H](N(C)C)[C@H]2O)[C@@H](CCN(C)Cc2cn(-c3cnc4ccccc4c3)nn2)C[C@@H](C)C(=O)/C=C/C(C)=C/[C@@H]1CNCc1ccc(C)cc1
MIC / µg/mL: 2
--
compound: CC[C@H]1OC(=O)C[C@@H](O)[C@H](C)[C@@H](O[C@@H]2O[C@H](C)[C@@H](O)[C@H](N(C)C)[C@H]2O)[C@@H](CCN(Cc2cn(-c3cnc4ccccc4c3)nn2)c2ccccc2)C[C@@H](C)C(=O)/C=C/C(C)=C/[C@@H]1CN(C)CC
MIC / µg/mL: 2
--
compound: CC[C@H]1OC(=O)C[C@@H](O)[C@H](C)[C@@H](O[C@@H]2O[C@H](C)[C@@H](O)[C@H](N(C)C)[C@H]2O)[C@@H](CCNCc2cn(-c3cnc4ccccc4c3)nn2)C[C@@H](C)C(=O)/C=C/C(C)=C/[C@@H]1CN(C)C(C)C
MIC / µg/mL: 2

As a next step, examine the compound that follows.
Exam item: Entry under review: CC[C@H]1OC(=O)C[C@@H](O)[C@H](C)[C@@H](O[C@@H]2O[C@H](C)[C@@H](O)[C@H](N(C)C)[C@H]2O)[C@@H](CCN(C)Cc2cn(-c3cnc4ccccc4c3)nn2)C[C@@H](C)C(=O)/C=C/C(C)=C/[C@@H]1CNCc1ccc(Cl)cc1 . Reported MIC?
Marked response: 1

###

Tested on: Escherichia coli
assay.comment: Antibacterial activity against Escherichia coli ATCC25922 incubated for 16 to 20 hrs by broth microdilution method
Format: functional
condition.summary: time 16-20 hrs
For each of the molecules below, state its MIC.

Completed entries (count: 3):
molecule: CCCNC[C@H]1/C=C(C)/C=C/C(=O)[C@H](C)C[C@H](CCNCc2cn(-c3cnc4ccccc4c3)nn2)[C@H](O[C@@H]2O[C@H](C)[C@@H](O)[C@H](N(C)C)[C@H]2O)[C@@H](C)[C@H](O)CC(=O)O[C@@H]1CC
MIC: 8 mg/L
--
molecule: CC[C@H]1OC(=O)C[C@@H](O)[C@H](C)[C@@H](O[C@@H]2O[C@H](C)[C@@H](O[C@H]3C[C@@](C)(O)[C@@H](O)[C@H](C)O3)[C@H](N(C)C)[C@H]2O)[C@@H](CC=O)C[C@@H](C)C(=O)/C=C/C(C)=C/[C@@H]1CO[C@@H]1O[C@H](C)[C@@H](O)[C@@H](OC)[C@H]1OC [TYLOSIN]
MIC: > 32 mg/L
--
molecule: CC[C@H]1OC(=O)C[C@@H](O)[C@H](C)[C@@H](O[C@@H]2O[C@H](C)[C@@H](O)[C@H](N(C)C)[C@H]2O)[C@@H](CCNCc2cn(-c3cnc4ccccc4c3)nn2)C[C@@H](C)C(=O)/C=C/C(C)=C/[C@@H]1CNc1ccc(Br)cc1
MIC: 1 mg/L

In the following, a different molecule is considered.
Exam item: For the molecule shown here, CC(=O)NC[C@H]1CN(c2ccc(N3CCOCC3)c(F)c2)C(=O)O1 [LINEZOLID] , give the reported MIC.
Marked response: > 32 mg/L

Origin of values: ChEMBL document CHEMBL6074711
